# ASSAYED_SYSTEM: T1, 4H949-bH
# T1 chain: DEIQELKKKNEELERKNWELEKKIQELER
# METHOD_DESCRIPTION: two-hybrid library CCNG1;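 note: natural log of median RNA to DNA barcode read ratio; higher means stronger binding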
interaction score reference
PROPERTY_LABEL: interaction score

- BINDER: "DKNQELEKKIEELERKIWELEKENQELKR [4H3364-bH]"
  ENDPOINT_RESULT: 0.153
- BINDER: "DKIQELEKEIEELKRENWELKKKNQELER [4H2143-bH]"
  ENDPOINT_RESULT: -0.954
- BINDER: "DEIQELEKENEELKRKIWELKKENQELER [4H235-bH]"
  ENDPOINT_RESULT: -0.845
- BINDER: "DEIQELEKENEELERKIWELEKKIQELKR [4H166-bH]"
  ENDPOINT_RESULT: 0.814
- BINDER: "DEIQELKKKIEELERENWELKKENQELKR [4H796-bH]"
  ENDPOINT_RESULT: -0.00426
- BINDER: "DKIQELKKENEELKREIWELEKKNQELKR [4H2760-bH]"
  ENDPOINT_RESULT: -0.189
- BINDER: "DKIQELEKKNEELEREIWELKKENQELKR [4H2444-bH]"
  ENDPOINT_RESULT: -0.478
